SYSTEM_TESTED: GABAA receptors
ASSAY_EXPLANATION: inhibition of [35S]-TBPS binding to rat whole brain membranes
RUN_PARAMETERS: concentration required to inhibit 50% of [35S]-TBPS binding
Below: a set of entries, each annotated with reported IC50.
RECORDED_METRIC: IC50

In [3]: df
Out[3]:
                                   molecule  assay_value
0  COCCN(C)C(C)C(=O)Oc1c(OC)cccc1OC.Cl (stereo not shown)      ~100 µM
1  CCOCCN(CCOCC)C(CC)C(=O)Oc1c(OC)cccc1OC (racemic)      ~100 µM
2  COCCN(CCOC)[C@H](C)C(=O)Oc1c(OC)cc(C)cc1OC     < 100 µM
3  CCC(C(=O)Oc1c(OC(C)C)cccc1OC(C)C)N(CCOC)CCOC (racemic)     < 100 µM
4  CCOCCN(CCOCC)C(C)C(=O)Oc1c(OC)cccc1OC (racemic) [Example 7d]     ≤ 100 µM
5  COCCN(CCOC)C(C)C(=O)Oc1c(OC)cc(C)cc1OC (racemic)     < 100 µM
6  CCOCCN(CCOCC)C(C)C(=O)Oc1c(OC)cccc1OC (single isomer, unassigned; (+)) [Example 7w]      ~100 µM
7  CCOCCN(CCOCC)C(C)C(=O)Oc1c(OC)cccc1OC (single isomer, unassigned; (-)) [Example 7x]     < 100 µM
8  COCCN(CCOC)C(C)C(=O)Oc1c(OC)cccc1OC (racemic)     < 100 µM
9  CCN(CC)C(C)C(=O)Oc1c(OC)cc(C)cc1OC (racemic)      < 50 µM
